Data provenance is the supplement of paper PMC10498489.

# Tested on: HepG2 Srxn1-GFP reporter cells (+30 nM CDDO-Me)
# TEST_NAME: Srxn1-GFP intensity median modified Z-score relative to plate median; higher = stronger NRF2 / oxidative stress reporter activation, active = hit call of the paper
# CONDITIONS: 10 µM; exposure time: 24h
Out of some 2,300 compounds screened, about 330 (14%) showed activity. A selection follows.
Srxn1-GFP intensity median modified Z-score by entry:
The reply should be a number, written without any unit.

Example results:
CCC(C)n1nccc1NC(=O)C(C)N1CCSCC1 (stereo unspecified) : 0.365
CCN(CC)C(=O)C1(c2ccccc2)CC1CN (stereo unspecified) : -0.729
OC[C@@H](O)[C@@H](O)[C@@H](O)[C@H](O)[C@@H](O)CO : -0.744
N#Cc1ccc2[nH]cc(CCCCN3CCN(c4ccc5oc(C(N)=O)cc5c4)CC3)c2c1 : 0.321
CC(NS(=O)(=O)c1cccc(Cl)c1)C1CCCO1 (stereo unspecified) : 1.74

Qu. Report Srxn1-GFP intensity median modified Z-score for `COc1ccc(C(=O)/C=C/c2cccc(Cl)c2)cc1` tested on HepG2 Srxn1-GFP reporter cells (+30 nM CDDO-Me).
Ans. 0.75

Qu. Report Srxn1-GFP intensity median modified Z-score for `Cc1cc(O)c2c(c1)C(=O)c1cc(O)cc(O)c1C2=O` tested on HepG2 Srxn1-GFP reporter cells (+30 nM CDDO-Me).
Ans. 0.573

Qu. Report Srxn1-GFP intensity median modified Z-score for `O=C1CCc2ccc(OCCCCN3CCN(c4cccc(Cl)c4Cl)CC3)cc2N1` tested on HepG2 Srxn1-GFP reporter cells (+30 nM CDDO-Me).
Ans. 0.292

Qu. Report Srxn1-GFP intensity median modified Z-score for `Cc1[nH]c(C)c(Cl)c(=O)c1Cl` tested on HepG2 Srxn1-GFP reporter cells (+30 nM CDDO-Me).
Ans. 6.67

Qu. Report Srxn1-GFP intensity median modified Z-score for CO[C@H]1CC(O[C@@H]2/C(C)=C/C[C@@H]3C[C@@H](C[C@]4(CC[C@H](C)[C@@H](C5CCCCC5)O4)O3)OC(=O)C3=CC(C)C(=NO)C4OC/C(=C\C=C\[C@@H]2C)[C@@]34O)O[C@@H](C)C1O (stereo partly specified) tested on HepG2 Srxn1-GFP reporter cells (+30 nM CDDO-Me).
Ans. 8.72

Qu. Report Srxn1-GFP intensity median modified Z-score for `C/C1=C/CC(C)(C)/C=C/C/C(C)=C/CC1` tested on HepG2 Srxn1-GFP reporter cells (+30 nM CDDO-Me).
Ans. 0.112

Qu. Report Srxn1-GFP intensity median modified Z-score for CCC(C)[C@H]1O[C@]2(C=C[C@@H]1C)C[C@@H]1C[C@@H](C/C=C(\C)[C@@H](OC3C[C@H](OC)C(O[C@H]4C[C@H](OC)[C@@H](O)[C@H](C)O4)[C@H](C)O3)[C@@H](C)/C=C/C=C3\CO[C@@H]4[C@H](OC)C(C)=CC(C(=O)O1)[C@]34O)O2 (stereo partly specified) tested on HepG2 Srxn1-GFP reporter cells (+30 nM CDDO-Me).
Ans. 5.69

Qu. Report Srxn1-GFP intensity median modified Z-score for `CC(=O)Nc1ccc(OC(C)=O)cc1` tested on HepG2 Srxn1-GFP reporter cells (+30 nM CDDO-Me).
Ans. -0.386

Qu. Report Srxn1-GFP intensity median modified Z-score for `COc1cc(O)c(C(C)=O)c(O)c1` tested on HepG2 Srxn1-GFP reporter cells (+30 nM CDDO-Me).
Ans. 1.48

Qu. Report Srxn1-GFP intensity median modified Z-score for CCN[C@@H]1C[C@H](N)[C@@H](O[C@H]2OC(CN)=CC[C@H]2N)[C@H](O)[C@H]1OC1OC[C@](C)(O)[C@H](NC)[C@H]1O (stereo partly specified) tested on HepG2 Srxn1-GFP reporter cells (+30 nM CDDO-Me).
Ans. -0.391

Qu. Report Srxn1-GFP intensity median modified Z-score for `COc1cc(O)c2c(c1)C(=O)c1cc(C)cc(O)c1C2=O` tested on HepG2 Srxn1-GFP reporter cells (+30 nM CDDO-Me).
Ans. 0.0189

Qu. Report Srxn1-GFP intensity median modified Z-score for `N=C(N)N` tested on HepG2 Srxn1-GFP reporter cells (+30 nM CDDO-Me).
Ans. -0.496

Qu. Report Srxn1-GFP intensity median modified Z-score for `O=C(O)CCC(=O)Nc1ccc(S(=O)(=O)N=c2[nH]ccs2)cc1` tested on HepG2 Srxn1-GFP reporter cells (+30 nM CDDO-Me).
Ans. 0.358

Qu. Report Srxn1-GFP intensity median modified Z-score for `CC(=O)Oc1cccc(O)c1` tested on HepG2 Srxn1-GFP reporter cells (+30 nM CDDO-Me).
Ans. 0.144
